experiment: Pharmacokinetics of SNS-595 in cancer patients; type: in vivo, human; settings: human; dose 12 mg/m2, cancer patients, plasma; read-out: AUCINF_obs
Observation Type: AUC(0-inf)

Note to self: AUC(0-inf) recorded for CN[C@H]1CN(c2ccc3c(=O)c(C(=O)O)cn(-c4nccs4)c3n2)C[C@@H]1OC was 5230 ng·h/mL

* * *

assay: Pharmacokinetics of SNS-595 in cancer patients; type: in vivo, human; details: human; dose 12 mg/m2, cancer patients, plasma
Observation Type: AUC(0-t)

// sample CN[C@H]1CN(c2ccc3c(=O)c(C(=O)O)cn(-c4nccs4)c3n2)C[C@@H]1OC , its AUC(0-t) was ~6280 ng·h/mL
